assay: Trough plasma concentrations of Compound A in the human clinical study; type: in vivo; conditions: human, plasma, oral, 50 mg, 50 mg QD; 4 week; human plasma; read-out: Trough Plasma Concentrations, Mean (SD)
Metric: concentration at 4 week (ng/mL)
# value in ng/mL; strip the unit string

IN: // returns reported concentration at 4 week for input C[C@@H](C(=O)N(C)c1ccc2cc(-c3n[nH]c4c3CCC(C)(C)C4)[nH]c2c1)N1CCOCC1 [Compound A]
OUT: 135

----------
experiment: Trough plasma concentrations of Compound A in the human clinical study; type: in vivo; details: human, plasma, oral, 150 mg, 150 mg QD; 4 week; human plasma; BLQ (<2.00 ng/mL) set to 0; read-out: Trough Plasma Concentrations, Min-Max
Metric: concentration at 4 week

IN: Fill in the blank: the reported concentration at 4 week of C[C@@H](C(=O)N(C)c1ccc2cc(-c3n[nH]c4c3CCC(C)(C)C4)[nH]c2c1)N1CCOCC1 [Compound A] is ____.
OUT: 0 to 748 ng/mL

----------
assay: Trough plasma concentrations of Compound A in the human clinical study; format: in vivo; settings: human, plasma, oral, 100 mg, 100 mg QD; 8 week; human plasma; read-out: Trough Plasma Concentrations, Median
Metric: concentration at 8 week (ng/mL)
Quick reminder: number only, in ng/mL, skip the unit.

IN: Find the recorded concentration at 8 week belonging to C[C@@H](C(=O)N(C)c1ccc2cc(-c3n[nH]c4c3CCC(C)(C)C4)[nH]c2c1)N1CCOCC1 [Compound A] and report it.
OUT: 194

----------
test: Trough plasma concentrations of Compound A in the human clinical study; format: in vivo; settings: human, plasma, oral, 50 mg, 50 mg QD; 2 week; human plasma; BLQ (<2.00 ng/mL) set to 0; read-out: Trough Plasma Concentrations, Min-Max
Metric: concentration at 2 week

IN: Data request, read-out concentration at 2 week, for `C[C@@H](C(=O)N(C)c1ccc2cc(-c3n[nH]c4c3CCC(C)(C)C4)[nH]c2c1)N1CCOCC1`
OUT: 0 to 387 ng/mL

----------
test: Trough plasma concentrations of Compound A in the human clinical study; assay type: in vivo; conditions: human, plasma, oral, 150 mg, 150 mg QD; 2 week; human plasma; BLQ (<2.00 ng/mL) set to 0; read-out: Trough Plasma Concentrations, Min-Max
Metric: concentration at 2 week

IN: Value lookup for concentration at 2 week; key = `C[C@@H](C(=O)N(C)c1ccc2cc(-c3n[nH]c4c3CCC(C)(C)C4)[nH]c2c1)N1CCOCC1`
OUT: 1.47 to 1110 ng/mL

----------
experiment: Trough plasma concentrations of Compound A in the human clinical study; assay type: in vivo; settings: human, plasma, oral, 100 mg, 100 mg QD; 8 week; human plasma; read-out: Trough Plasma Concentrations, Mean (SD)
Metric: concentration at 8 week

IN: Any idea what concentration at 8 week was measured for `C[C@@H](C(=O)N(C)c1ccc2cc(-c3n[nH]c4c3CCC(C)(C)C4)[nH]c2c1)N1CCOCC1` ?
OUT: 228 ng/mL

----------
test: Trough plasma concentrations of Compound A in the human clinical study; type: in vivo; conditions: human, plasma, oral, 200 mg, 200 mg QD; 4 week; human plasma; read-out: Trough Plasma Concentrations, Mean (SD)
Metric: concentration at 4 week (ng/mL)
API: value field is a number in ng/mL; no unit string.

IN: Recorded concentration at 4 week of C[C@@H](C(=O)N(C)c1ccc2cc(-c3n[nH]c4c3CCC(C)(C)C4)[nH]c2c1)N1CCOCC1 [Compound A] , please.
OUT: 450

----------
Test: Trough plasma concentrations of Compound A in the human clinical study
Format: in vivo
Conditions: human, plasma, oral, 50 mg, 50 mg QD; 8 week; human plasma; read-out: Trough Plasma Concentrations, Median
Procedure: Compound A was evaluated in a multicenter, randomized, double-blind, placebo-controlled, parallel-group study in subjects with active rheumatoid arthritis. […] In the human clinical study described in Example 3, blood samples were collected from subjects prior to dosing at weeks 2, 4, 8, and 12 for the quantification of plasma Compound A levels.
Metric: concentration at 8 week (ng/mL)
Numbers only here, please. The scale is ng/mL.

IN: Name the reported concentration at 8 week value associated with the compound C[C@@H](C(=O)N(C)c1ccc2cc(-c3n[nH]c4c3CCC(C)(C)C4)[nH]c2c1)N1CCOCC1 [Compound A]
OUT: 108

----------
experiment: Trough plasma concentrations of Compound A in the human clinical study; type: in vivo; settings: human, plasma, oral, 200 mg, 200 mg QD; 12 week; human plasma; read-out: Trough Plasma Concentrations, Mean (SD)
Metric: concentration at 12 week (ng/mL)
The reply should contain only the number, in ng/mL.

IN: Which value of concentration at 12 week has been reported for C[C@@H](C(=O)N(C)c1ccc2cc(-c3n[nH]c4c3CCC(C)(C)C4)[nH]c2c1)N1CCOCC1 [Compound A] in the records?
OUT: 354

----------
test: Trough plasma concentrations of Compound A in the human clinical study; type: in vivo; details: human, plasma, oral, 100 mg, 100 mg QD; 2 week; human plasma; read-out: Trough Plasma Concentrations, Mean (SD)
Metric: concentration at 2 week (ng/mL)
# number only, unit ng/mL dropped from output

IN: Given `C[C@@H](C(=O)N(C)c1ccc2cc(-c3n[nH]c4c3CCC(C)(C)C4)[nH]c2c1)N1CCOCC1` , state its recorded concentration at 2 week.
OUT: 204

----------
test: Trough plasma concentrations of Compound A in the human clinical study; assay type: in vivo; settings: human, plasma, oral, 100 mg, 100 mg QD; 2 week; human plasma; read-out: Trough Plasma Concentrations, Median
Metric: concentration at 2 week (ng/mL)
Express it in ng/mL; write the number only.

IN: Recorded concentration at 2 week for `C[C@@H](C(=O)N(C)c1ccc2cc(-c3n[nH]c4c3CCC(C)(C)C4)[nH]c2c1)N1CCOCC1` , please?
OUT: 191

----------
Assay: Trough plasma concentrations of Compound A in the human clinical study
Assay type: in vivo
Conditions: human, plasma, oral, 200 mg, 200 mg QD; 4 week; human plasma; read-out: Trough Plasma Concentrations, Median
Experimental: Compound A was evaluated in a multicenter, randomized, double-blind, placebo-controlled, parallel-group study in subjects with active rheumatoid arthritis. […] In the human clinical study described in Example 3, blood samples were collected from subjects prior to dosing at weeks 2, 4, 8, and 12 for the quantification of plasma Compound A levels.
Metric: concentration at 4 week (ng/mL)
Give the quantity in ng/mL, number only.

IN: State the recorded concentration at 4 week for this entry: `C[C@@H](C(=O)N(C)c1ccc2cc(-c3n[nH]c4c3CCC(C)(C)C4)[nH]c2c1)N1CCOCC1`
OUT: 402

----------
test: Trough plasma concentrations of Compound A in the human clinical study; format: in vivo; conditions: human, plasma, oral, 100 mg, 100 mg QD; 12 week; human plasma; BLQ (<2.00 ng/mL) set to 0; read-out: Trough Plasma Concentrations, Min-Max
Metric: concentration at 12 week

IN: Tell me the measured concentration at 12 week of `C[C@@H](C(=O)N(C)c1ccc2cc(-c3n[nH]c4c3CCC(C)(C)C4)[nH]c2c1)N1CCOCC1` , please.
OUT: 0 to 728 ng/mL

----------
experiment: Trough plasma concentrations of Compound A in the human clinical study; assay type: in vivo; conditions: human, plasma, oral, 50 mg, 50 mg QD; 8 week; human plasma; BLQ (<2.00 ng/mL) set to 0; read-out: Trough Plasma Concentrations, Min-Max
Metric: concentration at 8 week

IN: Give the measured concentration at 8 week of C[C@@H](C(=O)N(C)c1ccc2cc(-c3n[nH]c4c3CCC(C)(C)C4)[nH]c2c1)N1CCOCC1 [Compound A] .
OUT: 0 to 436 ng/mL

----------
test: Trough plasma concentrations of Compound A in the human clinical study; format: in vivo; conditions: human, plasma, oral, 50 mg, 50 mg QD; 2 week; human plasma; read-out: Trough Plasma Concentrations, Median
Metric: concentration at 2 week (ng/mL)
All answers are understood in ng/mL, so give the number only.

IN: What does the data say about its concentration at 2 week? Entry: C[C@@H](C(=O)N(C)c1ccc2cc(-c3n[nH]c4c3CCC(C)(C)C4)[nH]c2c1)N1CCOCC1 [Compound A]
OUT: 118

----------
assay: Trough plasma concentrations of Compound A in the human clinical study; format: in vivo; conditions: human, plasma, oral, 150 mg, 150 mg QD; 8 week; human plasma; read-out: Trough Plasma Concentrations, Median
Metric: concentration at 8 week (ng/mL)
# unit: ng/mL | format: bare number

IN: Sample C[C@@H](C(=O)N(C)c1ccc2cc(-c3n[nH]c4c3CCC(C)(C)C4)[nH]c2c1)N1CCOCC1 [Compound A] — what was its concentration at 8 week?
OUT: 277
